Sourced from patent US20080255085A1

This section presents compounds with their documented Ki values.
target: GSK3β (Homo sapiens, UniProt P49841); experiment: GSK3β Scintillation Proximity Assay (ATP competition); conditions: recombinant human GSK3; 1 μM ATP; Km of ATP 20 μM used to calculate Ki; 20 minutes at room temperature
Sequence (P49841 whole entry): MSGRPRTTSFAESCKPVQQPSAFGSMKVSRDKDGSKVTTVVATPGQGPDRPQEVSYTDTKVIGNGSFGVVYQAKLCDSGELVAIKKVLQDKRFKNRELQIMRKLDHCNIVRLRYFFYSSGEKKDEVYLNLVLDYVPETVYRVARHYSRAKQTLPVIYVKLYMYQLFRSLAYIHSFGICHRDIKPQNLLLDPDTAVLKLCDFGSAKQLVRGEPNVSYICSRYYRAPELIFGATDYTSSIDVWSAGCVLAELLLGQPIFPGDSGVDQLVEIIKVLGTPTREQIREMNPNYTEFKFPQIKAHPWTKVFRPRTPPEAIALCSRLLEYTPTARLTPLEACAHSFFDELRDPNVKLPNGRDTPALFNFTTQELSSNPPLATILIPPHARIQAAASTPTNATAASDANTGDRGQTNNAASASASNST
Where a name gives a salt, the structure may show the parent alone.
Write the value in µM as a bare number.

The compound listed as CN1CCN(C(=O)c2ccc(-c3nc4c(-c5cccnc5)ccnc4[nH]3)cc2)CC1 [Example 9, hydrochloride] shows Ki equal to 0.254

The compound listed as COc1ccc(-c2ccnc3[nH]c(-c4ccc(C(=O)NCCN5CCOCC5)cc4)nc23)cc1 [Example 7, hydrochloride] shows Ki equal to 0.044

The compound listed as COc1ccc(-c2ccnc3[nH]c(-c4ccc(CN5CCCCC5)cc4)nc23)cc1 [Example 6, hydrochloride] shows Ki equal to 0.031

The compound listed as COc1cccc(-c2ccnc3[nH]c(-c4ccc(S(=O)(=O)N5CCN(C)CC5)cc4)nc23)c1 [Example 2, hydrochloride] shows Ki equal to 0.124
